molecular target: full-length beta-Catenin (Uniprot ID P35222) (Homo sapiens, UniProt P35222); construct: 10 nM full-length beta-Catenin (Uniprot ID P35222); assay: Fluorescence polarization IC50 (beta-catenin / 5FAM-TCF4 10-53 competition); assay type: binding; conditions: fluorescence polarization; read-out: beta-Catenin FP IC50
Sequence (P35222 whole entry): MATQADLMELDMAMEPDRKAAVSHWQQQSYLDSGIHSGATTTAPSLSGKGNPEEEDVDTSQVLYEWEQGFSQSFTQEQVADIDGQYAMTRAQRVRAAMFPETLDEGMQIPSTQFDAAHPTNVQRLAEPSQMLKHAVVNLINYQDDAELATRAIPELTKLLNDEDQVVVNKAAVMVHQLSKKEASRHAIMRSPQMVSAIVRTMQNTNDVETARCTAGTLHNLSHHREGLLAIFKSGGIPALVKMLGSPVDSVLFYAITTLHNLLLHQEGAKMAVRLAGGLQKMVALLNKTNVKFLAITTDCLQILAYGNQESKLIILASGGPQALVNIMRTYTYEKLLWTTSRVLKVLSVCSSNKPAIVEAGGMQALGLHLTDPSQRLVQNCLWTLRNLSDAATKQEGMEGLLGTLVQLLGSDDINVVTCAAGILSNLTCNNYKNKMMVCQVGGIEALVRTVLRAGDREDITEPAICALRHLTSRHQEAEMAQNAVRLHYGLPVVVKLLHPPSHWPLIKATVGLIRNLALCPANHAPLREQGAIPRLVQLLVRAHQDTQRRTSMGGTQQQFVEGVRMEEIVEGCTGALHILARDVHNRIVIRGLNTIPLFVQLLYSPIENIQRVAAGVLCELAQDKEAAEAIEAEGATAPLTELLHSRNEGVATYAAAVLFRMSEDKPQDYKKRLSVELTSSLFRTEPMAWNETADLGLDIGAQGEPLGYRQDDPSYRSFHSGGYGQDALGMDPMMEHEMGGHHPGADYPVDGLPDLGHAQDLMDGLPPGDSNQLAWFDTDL
pIC50: −log10 of the molar value.
Assay metric: pIC50

Compound	Assay metric	Recorded measurement
CC(=O)N1CCC[C@]12CC=CCCCC1(CCCC=CCCCOC(=O)N3CC[C@@](C(=O)N[C@@H](Cc4ccsc4)C(=O)N[C@@H](Cc4csc5ccccc45)C(=O)N[C@@H](CCC(N)=O)C(N)=O)(C3)NC(=O)[C@H](CC(C)C)NC(=O)[C@H](Cc3ccccc3)NC(=O)[C@H](C)NC(=O)[C@H](C)NC(=O)[C@H](CCN(CC(=O)O)C(=O)C3CCN(C)CC3)NC(=O)[C@H](CC(=O)O)NC1=O)NC(=O)[C@H](CC(C)(C)C)NC(=O)[C@H](CC(=O)O)NC2=O (stereo partly shown)	pIC50	7.59
